B1: CPEB3 Ribozyme (parent)
chain: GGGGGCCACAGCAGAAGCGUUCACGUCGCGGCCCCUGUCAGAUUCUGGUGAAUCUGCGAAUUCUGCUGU

Variants of: B1
Test: self-cleavage, relative activity (ratio to wild type); higher = more cleavage; co-transcriptional
Each entry below lists one item and its recorded self-cleavage value.
The answer should be written as a number, with no unit following it.

U46A U61G | 0.902
G25U C29A | 0.198
U20G U55A | 0.139
A42U C63U | 0.876

Sample G19A G25C — what was its self-cleavage?
0.151

Field entry: C34G A59G
0.538

// next record G58U U61C
0.892

And G50C C63G ?
0.738
